assay: qHTS assay to identify small molecule antagonists of the estrogen receptor alpha (ER-alpha) signaling pathway using the BG1 cell line (AID 743080); details: BG1Luc4E2 ERE-luciferase antagonist mode, luminescence; series mostly up to 70.3 µM;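 also: BG1 cells stimulated with 17beta-estradiol alongside compound; nearly all actives have a fitted effect of over 25% in size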
Results filed as inconclusive are left out. The source made the active and inactive calls. Calls follow the shape of the full dose curve.
value-type: outcome

// below: answered compounds
[
  {
    "molecule-smiles": "ClCC(Cl)(Cl)Cl",
    "value-measured": "inactive"
  },
  {
    "molecule-smiles": "COP(=S)(OC)Oc1c(Cl)cc(C)cc1Cl",
    "value-measured": "inactive"
  },
  {
    "molecule-smiles": "Nc1c(Br)cc([N+](=O)[O-])cc1[N+](=O)[O-]",
    "value-measured": "inactive"
  },
  {
    "molecule-smiles": "CCOP(=O)(N=C1SCCS1)OCC",
    "value-measured": "inactive"
  }
]

Please look at the items below and tell me outcome for each one, in order.
1. O=C(O)c1cccc(Cl)c1
2. COc1cc(OC)nc(NC(=O)NS(=O)(=O)c2ncccc2OCC(F)(F)F)n1
3. ClC(Cl)Br

1: inactive; 2: inactive; 3: inactive
